# Tested on: RPMI-8226 leukemia
# assay-details: NCI tumour cell line growth inhibition, 48 h
endpoint-label: TGI

molecule=O=C1CCCCN1 endpoint_label=TGI reading="> 1120 µM"
molecule=COc1ccc(-c2cc(=O)c3cc(C)c(C)c(C(=O)O)c3o2)cc1 endpoint_label=TGI reading="> 100 µM"
molecule=CN(CCNC(=O)c1nn(-c2ccc(Cl)cc2Cl)c2c1Cc1ccccc1-2)CCNC(=O)c1nn(-c2ccc(Cl)cc2Cl)c2c1Cc1ccccc1-2 endpoint_label=TGI reading="4.5 µM"
molecule="CC12C3CC4C5CC(C(C53)[C@@H]1NCc1ccccc1)C42 (stereo partly drawn)" endpoint_label=TGI reading="> 100 µM"
molecule=CN(/N=C/c1ccc(Cl)c(Cl)c1)C1=NCCCCN1 endpoint_label=TGI reading="64 µM"
molecule=CCOC(=O)c1c2c(n3ccc(NC(=O)CCN4CCCCC4)cc13)C(=O)c1ncccc1C2=O endpoint_label=TGI reading="4.49 µM"
molecule=O=c1oc2ccc(Cl)cc2c(=O)n1-c1ccc(F)cc1F endpoint_label=TGI reading="4.18 µM"
molecule=COc1ccc2nc3cc([N+](=O)[O-])ccc3c(Nc3ccc(S(=O)(=O)Nc4ncccn4)cc3)c2c1 endpoint_label=TGI reading="> 66.1 µM"
molecule=Cc1cc(=O)oc2cc3oc(N(C)c4ccccc4)nc(=O)c3cc12 endpoint_label=TGI reading="> 100 µM"
molecule=CO/N=C(/C(=O)Nc1c[n+](CC(=O)[O-])cs1)c1csc(N)n1 endpoint_label=TGI reading="> 100 µM"
molecule=COc1c(C)c(OC)c(C(=O)CC(C)C)c(OC)c1C endpoint_label=TGI reading="73.1 µM"
molecule=Cn1ccc(=NS(=O)(=O)c2ccccc2)cc1 endpoint_label=TGI reading="> 100 µM"
molecule=CN(/N=C/c1ccccc1O)c1ccc2ccccc2n1 endpoint_label=TGI reading="> 100 µM"
molecule=CC(=O)NCc1c(C(N)=O)ncn1Cc1ccccc1 endpoint_label=TGI reading="> 100 µM"
molecule="C/C=C\\C(CC(=O)NCCC1CN(C(=O)OCc2ccccc2)c2ccccc21)CC(=O)OC (stereo not drawn)" endpoint_label=TGI reading="> 100 µM"
molecule=C#CC(C)(C)OCCCCOc1cc(O)c2c(=O)c3ccccc3n(C)c2c1 endpoint_label=TGI reading="> 100 µM"
molecule=COC(=O)/C=C\C(C#N)(C#N)N=Cc1cccs1 endpoint_label=TGI reading="7.36 µM"
molecule=CS(=O)(=O)NNS(=O)(=O)c1ccc(F)cc1 endpoint_label=TGI reading="> 100 µM"
molecule=Cc1cccc2c(NCCN(C)C)c3cccc(C(=O)NCCN(C)C)c3nc12 endpoint_label=TGI reading="0.21 µM"
molecule="COCN1C(=N)C(C(=O)OC(C)(C)C)=C2C=C(O)C=CC21C (stereo not drawn)" endpoint_label=TGI reading="> 100 µM"
molecule=COc1ccccc1/C=N/Nc1nnc2c3ccccc3c3ncccc3c2n1 endpoint_label=TGI reading="> 100 µM"
molecule=O=C(O)CCSC(=O)Nc1cccc2ccccc12 endpoint_label=TGI reading="> 100 µM"
molecule="CN1N=C2c3ccccc3OC(c3ccccc3)[C@H]2C1c1ccccc1 (stereo partly drawn)" endpoint_label=TGI reading="> 100 µM"

###

Each entry below lists one item and its recorded TGI value.
# Tested on: OVCAR-5 ovarian
# assay-details: NCI tumour cell line growth inhibition, 48 h
endpoint-label: TGI

compound="N#CC(C(=O)CCC(=O)Nc1cccc(C(F)(F)F)c1)c1ccccc1 (stereo not drawn)" endpoint_label=TGI reading="> 100 µM"
compound=COc1ccc(N/N=C/C2=CC(C)(C)C(C#N)(C#N)C(O)=C2C#N)cc1 endpoint_label=TGI reading="> 100 µM"
compound=O=C1NC(=NCc2ccc(F)cc2)N/C1=C\c1ccccc1Cl endpoint_label=TGI reading="41 µM"
compound=C=CCOc1ccc(N)c([N+](=O)[O-])c1 endpoint_label=TGI reading="> 100 µM"
compound=CN(/N=C/c1ccc(Cl)c(Cl)c1)C1=NCCCCN1 endpoint_label=TGI reading="> 100 µM"
compound="COc1ccc(C2=NN(C(C)=O)C(c3ccc(Oc4ccnc5cc(Cl)ccc45)c(OC)c3)C2)cc1 (stereo not drawn)" endpoint_label=TGI reading="> 100 µM"
compound=CO/C=C(\Br)c1ccc2c(c1)OCO2 endpoint_label=TGI reading="> 100 µM"
compound="CC[C@@H]1CSC(/C=C/C2OC3OC(C)(C)OC3C3OC(C)(C)OC23)=N1 (stereo partly drawn)" endpoint_label=TGI reading="22.8 µM"
compound=N#CC1(N2CCCC2)CCC2(CC1)OCCO2 endpoint_label=TGI reading="> 100 µM"
compound="FC(F)(F)c1cc(NC(=S)N2c3ccccc3-n3cccc3C2c2cccnc2)cc(C(F)(F)F)c1 (stereo not drawn)" endpoint_label=TGI reading="59.2 µM"
compound="CCO[C@H]1O[C@@H]2OC3(C)CCC4[C@H](C)CCC([C@H]1C)[C@]42OO3 (stereo partly drawn)" endpoint_label=TGI reading="> 68.6 µM"
compound="Oc1ccc(C2Oc3cc(O)cc4c3C2c2cc(O)cc3c2C(c2cc(O)cc5c2C4C(c2ccc(O)cc2)O5)C(c2ccc(O)cc2)O3)cc1 (stereo not drawn)" endpoint_label=TGI reading="> 25 µM"
compound="CCOC(=O)C(NC(=O)c1cccc(Cl)c1)(Nc1ccc(S(=O)(=O)Nc2cc(C)nc(C)n2)cc1)C(F)(F)F (stereo not drawn)" endpoint_label=TGI reading="> 100 µM"
compound=c1ccc(SCCc2ccncc2)cc1 endpoint_label=TGI reading="> 100 µM"
compound=O=C1/C(=C/c2ccccc2)CCc2ccc([N+](=O)[O-])cc21 endpoint_label=TGI reading="> 100 µM"
compound=COc1ccc(C(=O)c2nc3ccccc3nc2N2CCN(c3ccccc3)CC2)cc1OC endpoint_label=TGI reading="> 100 µM"
compound=C=CCCCN1CCCCC1=S endpoint_label=TGI reading="> 100 µM"
compound=COC(=O)N/N=C(\C)CC(=O)Nc1cccc([N+](=O)[O-])c1 endpoint_label=TGI reading="> 100 µM"
compound=Fc1ccc(-c2ncn(CCCN3CCOCC3)c2-c2ccncc2)cc1 endpoint_label=TGI reading="> 25 µM"
compound=O=C(Nc1ccccc1Cl)c1ccc(NC2=C(Cl)C(=O)N(C3CCCCC3)C2=O)cc1 endpoint_label=TGI reading="128 µM"
compound=CC[O-].CC[O-].O=C([CH-]C(=O)c1ccccc1)CCCCCCC(=O)[CH-]C(=O)c1ccccc1.[Ti+4] endpoint_label=TGI reading="> 100 µM"
compound=COc1ccc(-c2cc(=O)c3cc(Cl)ccc3[nH]2)cc1 endpoint_label=TGI reading="> 100 µM"
compound="CN1N=C2c3ccccc3OC(c3ccccc3)[C@H]2C1c1ccccc1 (stereo partly drawn)" endpoint_label=TGI reading="> 100 µM"
compound=Cc1ccc2nc(CN(CCO)CCO)cc(=O)n2c1 endpoint_label=TGI reading="> 100 µM"
compound="CC(C)=NOC(=O)OC[C@H]1O[C@@H](n2cnc3c(N)ncnc32)C(O)C1O (stereo partly drawn)" endpoint_label=TGI reading="> 100 µM"
compound=CCn1c(SCC(=O)Nc2cc(C(F)(F)F)ccc2Cl)nc2ccccc2c1=O endpoint_label=TGI reading="> 100 µM"
compound=OCCN(CCO)c1nc(N2CCCCC2)c2nc(N(CCO)CCO)nc(N3CCCCC3)c2n1 endpoint_label=TGI reading="> 100 µM"
compound="Nc1ccn(CCOC(c2ccccc2)P(=O)(O)O)c(=O)n1 (stereo not drawn)" endpoint_label=TGI reading="> 100 µM"
compound=O=C(c1ccc2ccccc2c1)c1c(C(F)(F)F)n([O-])c2cc(C(F)(F)F)ccc2[n+]1=O endpoint_label=TGI reading="4.79 µM"
compound=O=c1cc(-c2ccccc2)oc2c1ccc1ccccc12 endpoint_label=TGI reading="> 100 µM"
compound="N#Cc1ccccc1NC(=O)C(=O)C(C(=O)c1ccncc1)C1OC(=O)c2ccccc21 (stereo not drawn)" endpoint_label=TGI reading="> 100 µM"
compound=NNc1nc2ccccc2o1 endpoint_label=TGI reading="> 100 µM"
compound="CC(=O)OC12CC[N+]3(C)CCCCC3C1=Nc1ccccc12 (stereo not drawn)" endpoint_label=TGI reading="> 100 µM"
compound=O=C1c2ccccc2C(=O)c2c1oc1c2c(=O)[nH]c2ccc(Cl)cc21 endpoint_label=TGI reading="14.7 µM"
compound=O=C(O)c1ccccc1/C=C1/Cc2ccc3c(c2C1=O)CCC3 endpoint_label=TGI reading="> 100 µM"
compound=Cc1cc(=O)oc2cc3oc(N(C)c4ccccc4)nc(=O)c3cc12 endpoint_label=TGI reading="> 100 µM"
compound=COC(=O)C1=C(C(=O)ON)[C@@H]2C=C[C@@]1([C@@H](Cc1ccccc1)Nc1ccccc1)O2 endpoint_label=TGI reading="31 µM"
compound=O=C(c1ccccc1)N(CCCCNC(=O)C(F)(F)F)CCCNC(=O)C(F)(F)F endpoint_label=TGI reading="> 100 µM"
compound="O=C1CCC2(CC1CCS(=O)c1ccccc1)OCCO2 (stereo not drawn)" endpoint_label=TGI reading="> 100 µM"
compound=N#CC1(C#N)[C@@H]2CCC=C(Sc3ccccc3)[C@@H]21 endpoint_label=TGI reading="32 µM"
compound=CC(C)C1=CC2=CC[C@@H]3[C@](C)(CCC[C@@]3(C)C(=O)O)[C@H]2CC1 endpoint_label=TGI reading="> 100 µM"
compound=CCOP(=O)(Nc1ccc(-c2ccc(N)cc2)cc1)OCC endpoint_label=TGI reading="> 100 µM"
compound="CCOC(=O)/C(=C\\c1cn(C(C)=O)c2ccccc12)P(C)(=O)OCC (stereo not drawn)" endpoint_label=TGI reading="> 100 µM"
